Test system: MDA-MB468
Test: SRB antiproliferative assay, MDA-MB468
Format: cell-based, human
Details: Homo sapiens, MDA-MB-468, 48 h, SRB, 48 h incubation, MDA-MB468 breast cancer cells; read-out: GI50 MDA-MB468
Quick reference: GI50 of the listed items.
Lab book: enter the figure in µM, no units written.

compound | GI50 [µM]
O=C(Nc1ccc(C(F)(F)F)cc1)N1CCN(c2ccnc3cc(Cl)ccc23)CC1 [Compound 7] | 19.8
S=C(Nc1cccc2ccccc12)N1CCN(c2ccnc3cc(Cl)ccc23)CC1 [Compound 22] | 10
O=C(Nc1c(Cl)cc(Cl)cc1Cl)N1CCN(c2ccnc3cc(Cl)ccc23)CC1 [Compound 8] | 30.4
S=C(NCCN1CCOCC1)N1CCN(c2ccnc3cc(Cl)ccc23)CC1 [Compound 23] | 4.7
O=C(Nc1cccc2ccccc12)N1CCN(c2ccnc3cc(Cl)ccc23)CC1 [Compound 9] | 7.1

// moving on: another record for GI50
Sample O=C(Nc1cccc2ccccc12)N1CCN(c2ccnc3cc(C(F)(F)F)ccc23)CC1 [Compound 15] ; GI50 observed: 9.6

====

System: MDA-MB468
Test: SRB antiproliferative assay, MDA-MB468
Assay type: cell-based, human
Details: Homo sapiens, MDA-MB-468, 48 h, SRB, 48 h incubation, MDA-MB468 breast cancer cells; read-out: GI50 MDA-MB468
Parameter GI50: see the listing below.
Expressed in µM, but write only the number.

Example entries begin here.
item-smiles | units-label | reading
S=C(Nc1ccccc1)N1CCN(c2ccnc3cc(Cl)ccc23)CC1 | µM | 11.8
FC(F)(F)c1ccc2c(N3CCN(C(=S)NCCN4CCOCC4)CC3)ccnc2c1 | µM | 14.2
O=C(Nc1ccccc1)N1CCN(c2ccnc3cc(C(F)(F)F)ccc23)CC1 | µM | 57.6

Reported GI50 for S=C(Nc1ccc(Cl)cc1)N1CCN(c2ccnc3cc(Cl)ccc23)CC1 was 33.1
